This collection of values is drawn from ChEMBL document CHEMBL3808361.

This document collects Ki values reported for UniProt:Q16790.
Only the number, expressed in nM, is required.

These recorded examples may help you get a feel for the data.
NS(=O)(=O)c1ccc(Nc2csc(Nc3ccc(S(N)(=O)=O)cc3)n2)cc1 = 7.3
NS(=O)(=O)c1ccc(Nc2nc(NN3C(=O)/C(=C/c4ccc(Cl)cc4)N=C3c3ccccc3)cs2)cc1 = 29.2
NC(N)=NS(=O)(=O)c1ccc(N/N=C2\SC(Nc3ccc(S(N)(=O)=O)cc3)=NC2=O)cc1 = 8.5
NS(=O)(=O)c1ccc(Nc2nc(Nc3ccc(F)cc3)cs2)cc1 = 5.6
NS(=O)(=O)c1ccc(Nc2nc(Nc3ccc(C(=O)O)cc3)cs2)cc1 = 8.8

Record summary for "NS(=O)(=O)c1ccc(Nc2nc(N3CCCCC3)cs2)cc1" : reported Ki = 6.7

// recorded Ki for "NS(=O)(=O)c1ccc(NC2=NC(=O)/C(=N/Nc3ccc(C(=O)O)cc3)S2)cc1" : 6.4
